testMethodNotes: recombinant barcode read abundance after kanamycin selection (control-corrected) (log10(CPM+1)); higher = more efficient recombination; sequences stand for … in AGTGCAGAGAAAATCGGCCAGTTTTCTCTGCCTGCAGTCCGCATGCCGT…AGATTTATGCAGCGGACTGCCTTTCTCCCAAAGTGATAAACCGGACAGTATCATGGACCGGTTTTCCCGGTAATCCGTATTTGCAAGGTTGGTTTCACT; site = the 11-nt target
Definition: the class of an entry is the range in class A: < 0.1; class B: ≥ 0.1 and < 0.5; class C: ≥ 0.5 that contains its recombinant barcode read abundance (log10).

As a guide, the following entries are already answered.
orderedResidues	assignedCategory
TCTCAGCCTTGGGTTCTAACCTGTTGCCT (site TCTCTGCCTAG)	class A
GCGGGTCCTTGGGTTCTAACCTGTTGCCT (site GCTGGTCCTAG)	class C
AACACGTCTTGGGTTCTAACCTGTTGCCT (site AAATCGTCTAG)	class A
CAGCGTGCTTGGGTTCTAACCTGTTGCCT (site CTGCGTGCTAG)	class C
TAGCTTACTTGGGTTCTAACCTGTTGCCG (site TAGCTTACTCG)	class C
TCACACTCTTGGGTTCTAACCTGTTGCCT (site TCTCACTCTAG)	class B

For this sequence, which bin applies? TATATAACTTGGGTTCTAACCTGTTGCCT (site TATACAACTAG)
class A

Record CTCTGCTCTTGGGTTCTAACCTGTTGCTC (site GCTGAGGCTTG) — which class?
class A

Kindly state the category for this sequence: GGAGTCACTTGGGTTCTAACCTGTTGCGG (site TTGACACCTAG)
class B

* * *

So I've got a bunch of sequences here, and I need their recombinant barcode read abundance (log10) values.
testMethodNotes: recombinant barcode read abundance after kanamycin selection (control-corrected) (log10(CPM+1)); higher = more efficient recombination; sequences stand for … in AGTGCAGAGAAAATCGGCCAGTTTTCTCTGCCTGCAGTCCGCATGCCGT…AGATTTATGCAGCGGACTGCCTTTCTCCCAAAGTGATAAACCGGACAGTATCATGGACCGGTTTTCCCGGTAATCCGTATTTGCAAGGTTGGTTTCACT; site = the 11-nt target
Answers are plain numbers.

Please give recombinant barcode read abundance (log10) for each item listed below.
1. AGCGAGTCTTGGGTTCTAACCTGTTGCCT (site ACCGAGTCTAG)
2. CAGGAACCTTGGGTTCTAACCTGTTGCCT (site CAGGAACCTAG)

1: 0.817; 2: 2.01

I need recombinant barcode read abundance (log10) for every entry listed below, if you could help.
1. CATTAGCCTTGGGTTCTAACCTGTTGCCT (site CATGAGCCTAG)
2. CACATCACTTGGGTTCTAACCTGTTGCCT (site CACATCACTAG)
3. AGCCCTCCTTGGGTTCTAACCTGTTGCTA (site AGCCCTCCTTA)
4. CTGGGCACTTGGGTTCTAACCTGTTGCCT (site CTGGGCACTAG)
5. ATTTGCCCTTGGGTTCTAACCTGTTGCCT (site AGTTGCCCTAG)
6. ATTTGCCCTTGGGTTCTAACCTGTTGCCT (site ACTTGCCCTAG)

[0.0107, 0.704, 1.37, 0.395, 0.0335, 0.0987]

Provide recombinant barcode read abundance (log10) values for the following items, in order.
1. AGGGGTCCTTGGGTTCTAACCTGTTGCAT (site AGGGGTCCTAT)
2. CCGGCCACTTGGGTTCTAACCTGTTGCCT (site CTGGCCACTAG)

2.72
0.155

* * *

I'd appreciate it if you could supply recombinant barcode read abundance (log10) values for the items below.
testMethodNotes: recombinant barcode read abundance after kanamycin selection (control-corrected) (log10(CPM+1)); higher = more efficient recombination; sequences stand for … in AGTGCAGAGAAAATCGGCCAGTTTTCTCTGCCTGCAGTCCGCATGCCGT…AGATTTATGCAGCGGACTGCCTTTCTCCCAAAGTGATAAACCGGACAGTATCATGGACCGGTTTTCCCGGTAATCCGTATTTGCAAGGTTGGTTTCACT; site = the 11-nt target
One number for each entry.

orderedResidues	resultValue
TAGAACACTTGGGTTCTAACCTGTTGCTG (site TAGAACACTAA)	0.106
GGCACGACTTGGGTTCTAACCTGTTGCCT (site GGCACAACTAG)	0.274
GTACCGCCTTGGGTTCTAACCTGTTGCCT (site GTACGGCCTAG)	0.122

Count: 8. Required value per item: recombinant barcode read abundance (log10).
1. CCTTGTACTTGGGTTCTAACCTGTTGCCT (site CCTTGTACTAG)
2. TAGAAGTCTTGGGTTCTAACCTGTTGCTG (site TAGAAGTCTCA)
3. TAGCCCACTTGGGTTCTAACCTGTTGCGG (site TAGCGCACTCC)
4. GGTACTTCTTGGGTTCTAACCTGTTGCTT (site GGTACTTCTAA)
5. TAGGTCGCTTGGGTTCTAACCTGTTGCAT (site TAGATCGCTCT)
6. ACGTCCACTTGGGTTCTAACCTGTTGCCT (site CCGTCGACTAG)
7. TCTAGATCTTGGGTTCTAACCTGTTGCCT (site TCTAGAACTAG)
8. TCGAAGTCTTGGGTTCTAACCTGTTGCTA (site TCGAAGTCTTA)

1. 0.035
2. 1.46
3. 0.0188
4. 0.152
5. 0.171
6. 0.317
7. 0.0897
8. 0.272

Go through the items and report each one's recombinant barcode read abundance (log10).
1. CTAGTGACTTGGGTTCTAACCTGTTGCGT (site CTAGTGACTCC)
2. ACGGGATCTTGGGTTCTAACCTGTTGCCT (site TCGGGATCTAG)
3. CTCTCGCCTTGGGTTCTAACCTGTTGCCT (site CTGTCGCCTAG)
4. ACAATGACTTGGGTTCTAACCTGTTGCCT (site ACAATGACTAG)

1. 0.313
2. 0.0975
3. 0.0587
4. 0.904

Batch: recombinant barcode read abundance (log10) for all items listed.
1. CCTTTACCTTGGGTTCTAACCTGTTGCCT (site CCTTTACCTAG)
2. GTCCACTCTTGGGTTCTAACCTGTTGCTT (site GTCCACTCTAA)
3. TATTCTCCTTGGGTTCTAACCTGTTGCGT (site TATTCTCCTAT)
4. AGTTCTCCTTGGGTTCTAACCTGTTGCCG (site GAGCAGGCTAA)

1: 0.337; 2: 1.46; 3: 0.0406; 4: 0.0339

* * *

testMethodNotes: recombinant barcode read abundance after kanamycin selection (control-corrected) (log10(CPM+1)); higher = more efficient recombination; sequences stand for … in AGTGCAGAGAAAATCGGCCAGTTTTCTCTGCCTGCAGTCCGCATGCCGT…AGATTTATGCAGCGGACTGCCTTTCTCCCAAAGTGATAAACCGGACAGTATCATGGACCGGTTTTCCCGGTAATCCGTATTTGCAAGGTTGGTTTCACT; site = the 11-nt target
quantityKind: recombinant barcode read abundance (log10)
Numbers only.

In the examples that follow, each entry is paired with its recorded recombinant barcode read abundance (log10).
orderedResidues	resultValue
GTGTGTACTTGGGTTCTAACCTGTTGCCT (site GTGTGTGCTAG)	0.24
TTGGTCACTTGGGTTCTAACCTGTTGCCT (site TTGGCCACTAG)	0.309
AGCCTATCTTGGGTTCTAACCTGTTGCCA (site CTAGCCGCTAA)	0.109
CGCGCAACTTGGGTTCTAACCTGTTGCCT (site CGCGTAACTAG)	0.185
GATACAGCTTGGGTTCTAACCTGTTGCCT (site GATACAGCTAG)	1.16

# batch: return recombinant barcode read abundance (log10) for each of the 5 sequences below
1. CGGGTAACTTGGGTTCTAACCTGTTGCCT (site CGGGTAACTAG)
2. GCGCTAACTTGGGTTCTAACCTGTTGCCT (site TCGCTAACTAG)
3. GAGGAGTCTTGGGTTCTAACCTGTTGCCT (site GAGAAGTCTAG)
4. GGACCTCCTTGGGTTCTAACCTGTTGCCT (site GGACCTCCTAA)
5. TTGGTCGCTTGGGTTCTAACCTGTTGCCT (site TTGGCCGCTAG)

1. 0.0693
2. 0.169
3. 1.02
4. 0.336
5. 1.4

* * *

Assign recombinant UMI read abundance (log10) to each entry below.
testMethodNotes: recombinant UMI read abundance after kanamycin selection (control-corrected) (log10(CPM+1)); higher = more efficient recombination; extreme values may be limits of the assay; sequences stand for … in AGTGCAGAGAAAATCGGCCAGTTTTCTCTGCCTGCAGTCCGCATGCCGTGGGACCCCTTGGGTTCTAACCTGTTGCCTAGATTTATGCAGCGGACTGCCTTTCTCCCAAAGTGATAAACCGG…AGGTTGGTTTCACT; site = the 11-nt donor

Please review the entries below; each comes with its answer.
orderedResidues	resultValue
CTTGTAACATGGACCGGTTTTCCCGGTAATCCGTATTTGCA (site CTTGTAACTTG)	0.147
GAACATACATGGACCGGTTTTCCCGGTAATCCGTATTTGAA (site GAACATACTTT)	1.69
TCACGAACATGGACCGGTTTTCCCGGTAATCCGTATTTGTC (site CCACGAACTGA)	0.736
CGACCCGCATGGACCGGTTTTCCCGGTAATCCGTATTTGCG (site CGACCCGCTCG)	0.0234
GAATATCCATGGACCGGTTTTCCCGGTAATCCGTATTTGCT (site GAATATCCTAG)	1.3

Your task in this section: give recombinant UMI read abundance (log10) for each listed record.
1. GATTATCCATGGACCGGTTTTCCCGGTAATCCGTATTTGCG (site GATTATCCTCG)
2. CGCTCATCATGGACCGGTTTTCCCGGTAATCCGTATTTGCT (site CGGTCATCTAG)
3. AGGATGACATGGACCGGTTTTCCCGGTAATCCGTATTTGTA (site AGGAAGACTTG)
4. CTGATACCATGGACCGGTTTTCCCGGTAATCCGTATTTGCT (site CTGATACCTAG)

1: 0.363; 2: 0; 3: 0; 4: 0.00587

All values here come from the supplement of paper PMC11208160.
